// data source = the supplement of paper PMC10981050

In this section, each of the compounds is paired with its reported cell viability.
system: MOLM14; assay: cell viability relative to vehicle control; higher = less cytotoxic; settings: 10 µM; SRSF2 genotype: SRSF2 wt/wt;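 further: after 48 h exposure read by CellTiter-Glo luminescence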
Counter-ions that a name gives are not always drawn.
ENDPOINT_LABEL: cell viability (%)

COMPOUND	ENDPOINT_LABEL	NUMBER
O=C(O)c1ccc(O)cc1 [4-Hydroxybenzoic acid]	cell viability	99.5
COc1c(-c2ccc3cc(NS(C)(=O)=O)ccc3c2)cc(-n2ccc(=O)[nH]c2=O)cc1C(C)(C)C [S5402 Dasabuvir(ABT-333).cdx]	cell viability	97.3
CCOc1cc2ncc(C#N)c(Nc3ccc(F)c(Cl)c3)c2cc1NC(=O)/C=C/CN(C)C [Pelitinib (EKB-569)]	cell viability	0.62
C=C1CC[C@H]2O[C@]2(C)CC[C@@H]2[C@@H]1CC2(C)C [Caryophyllene oxide]	cell viability	107
CCCc1cc2c(N3CCN(C4=NCC(C)(C)S4)CC3)ncnc2s1 [MI-2 (Menin-MLL inhibitor)]	cell viability	84.1
COc1cc(O)c2c(c1)oc(=O)c1c3cc(O)c(O)cc3oc21 [Wedelolactone]	cell viability	67.2
COc1cc(OC2CCN(C)CC2)ccc1Nc1ncc2c(n1)n(C1CCCC1)c(=O)n2C	cell viability	14
CC12CC3CC(C)(C1)CC(N)(C3)C2 [Memantine hydrochloride (Namenda)]	cell viability	101
COc1cc(Nc2ncc(F)c(Nc3ccc4c(n3)N(COP(=O)(O)O)C(=O)C(C)(C)O4)n2)cc(OC)c1OC [R788 (Fostamatinib)]	cell viability	6.37
O=C(Nc1cccc(Cl)c1)c1ccccn1	cell viability	114
Cc1cc(F)c(Nc2ncnc3cc(OCc4ccccc4)ccc23)cc1O	cell viability	102
COc1cc(O)c(C(=O)Nc2nc(C(=O)NCCN(C(C)C)C(C)C)cs2)cc1OC [Acotiamide hydrochloride]	cell viability	98.8
COc1cc(C(C)=O)ccc1OCCCN1CCC(c2noc3cc(F)ccc23)CC1 [Iloperidone (Fanapt)]	cell viability	88.5
CN(c1ccccc1CNc1nc(Nc2ccc3c(c2)CC(=O)N3)ncc1C(F)(F)F)S(C)(=O)=O	cell viability	0.39
COc1ccc(C(NC(=O)c2cnc(-c3cccnn3)[nH]c2=O)c2ccc(OC)cc2)cc1	cell viability	104
O=CC(O)C(O)C(O)C(O)COC1OC(COC2OC(CO)C(O)C(O)C2O)C(O)C(O)C1O (stereo not given) [Manninotriose]	cell viability	104
C/C=C(/C)C(=O)O[C@@H]1[C@H](OC(C)=O)c2c(ccc3ccc(=O)oc23)OC1(C)C [Praeruptorin A]	cell viability	94.8
Cc1ccc(CNc2ncnc3ccc(-c4ccc(CO)o4)cc23)o1	cell viability	94.2
CC(=O)S[C@@H]1CC2=CC(=O)CC[C@]2(C)[C@H]2CC[C@@]3(C)[C@@H](CC[C@@]34CCC(=O)O4)[C@H]12 [spironolactone]	cell viability	91.5
C[C@@H]1C(=O)O[C@H]2C[C@@]34[C@H]5C[C@@H](C(C)(C)C)[C@]36[C@@H](OC(=O)[C@@H]6O)O[C@@]4(C(=O)O5)[C@]21O [Ginkgolide A]	cell viability	103
CCOC(=O)C1=C(C)NC(C)=C(C(=O)OC)C1c1cccc([N+](=O)[O-])c1 (stereo not given) [Nitrendipine]	cell viability	103
N=C(NCCCCCCNC(=N)NC(=N)Nc1ccc(Cl)cc1)NC(=N)Nc1ccc(Cl)cc1 [Chlorhexidine]	cell viability	4.9
CC1=C(C(=O)OC(C)C)C(c2cccc([N+](=O)[O-])c2)C(C(=O)OC2CN(C(c3ccccc3)c3ccccc3)C2)=C(N)N1 (stereo not given) [Azelnidipine]	cell viability	82.3
Cc1cc(O)cc(OC2OC(CO)C(O)C(O)C2O)c1 (stereo not given) [Orcinol glucoside]	cell viability	106
OC[C@H]1O[C@@](CO)(OC[C@@]2(O[C@H]3O[C@H](CO)[C@@H](O)[C@H](O)[C@H]3O)O[C@H](CO)[C@@H](O)[C@@H]2O)[C@@H](O)[C@@H]1O [1-Kestose]	cell viability	110
CC[C@H]1OC(=O)[C@H](C)[C@@H](O[C@H]2C[C@@](C)(OC)[C@@H](O)[C@H](C)O2)[C@H](C)[C@@H](O[C@@H]2O[C@H](C)C[C@H](N(C)C)[C@H]2O)[C@](C)(O)C[C@@H](C)/C(=N\OCOCCOC)[C@H](C)[C@@H](O)[C@]1(C)O [Roxithromycin (Roxl-150)]	cell viability	100
C[C@]1(c2nc3c(C(N)=O)cccc3[nH]2)CCCN1 [ABT-888 (Veliparib)]	cell viability	79
COc1cc2c(c(OC)c1OC)-c1c(cc3c(c1OC)OCO3)C[C@H](C)[C@](C)(O)[C@H]2OC(=O)c1ccccc1 [Schisantherin A]	cell viability	102
Cc1nnc(SCC2=C(C(=O)O)N3C(=O)[C@@H](NC(=O)Cn4cc(Cl)c(=O)c(Cl)c4)[C@H]3SC2)s1 [Cefazedone]	cell viability	106
C/C=C(/C)C(=O)O[C@H]1c2cc(OC)c(OC)c(OC)c2-c2c(cc3c(c2OC)OCO3)C[C@H](C)[C@]1(C)O [Schisantherin B]	cell viability	92.6
